- Assay type: in vivo, mice (C57BL/6J
- Conditions Used: male, C57BL/6J, mouse, brain, ip, 10 mg/kg
Assay Readout: concentration at 25.1 h (ng/g)
Give bare numbers, in ng/g.

Data point: Cc1c(C(=O)NN2CCCCC2)nn(-c2ccc(Cl)cc2Cl)c1-c1ccc(Cl)cc1 [SR141716, Rimonabant] ; concentration at 25.1 h = 186

----------
- Format: in vivo, mice (C57BL/6J
- Conditions Used: male, C57BL/6J, mouse, serum, ip, 10 mg/kg
Assay Readout: concentration at 25.1 h (ng/mL)
Answers are plain numbers, in ng/mL.

Data point: `Cc1c(C(=O)NN2CCCCC2)nn(-c2ccc(Cl)cc2Cl)c1-c1ccc(Cl)cc1` ; concentration at 25.1 h = 20.5

----------
- Format: in vivo, mice (C57BL/6J
- Conditions Used: male, C57BL/6J, mouse, brain, ip, 10 mg/kg
Assay Readout: Cmax (ng/g)
One number for each entry, in ng/g.

Data point: Cc1c(C(=O)NN2CCCCC2)nn(-c2ccc(Cl)cc2Cl)c1-c1ccc(Cl)cc1 [SR141716, Rimonabant] ; Cmax = 1010

----------
- Assay type: in vivo, mice (C57BL/6J
- Conditions Used: male, C57BL/6J, mouse, brain, ip, 10 mg/kg
Assay Readout: half-life (h)
Give bare numbers, in h.

Data point: `Cc1c(C(=O)NN2CCCCC2)nn(-c2ccc(Cl)cc2Cl)c1-c1ccc(Cl)cc1` ; half-life = 9.44

----------
- Assay type: in vivo, mice (C57BL/6J
- Conditions Used: male, C57BL/6J, mouse, serum, ip, 10 mg/kg
Assay Readout: Cmax (ng/mL)
Answers are plain numbers, in ng/mL.

Data point: Cc1c(C(=O)NN2CCCCC2)nn(-c2ccc(Cl)cc2Cl)c1-c1ccc(Cl)cc1 [SR141716, Rimonabant] ; Cmax = 258

----------
- Assay type: in vivo, mice (C57BL/6J
- Conditions Used: male, C57BL/6J, mouse, serum, ip, 10 mg/kg
Assay Readout: half-life (h)
One number for each entry, in h.

Data point: `Cc1c(C(=O)NN2CCCCC2)nn(-c2ccc(Cl)cc2Cl)c1-c1ccc(Cl)cc1` ; half-life = 6.33
